# EXPERIMENTAL DETAILS: Microsomal stability assay, human liver microsomes;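 note: pooled human liver microsomes at 0.25 mg/mL with 1 µM compound and NADPH at 37 °C, pH 7.4, for 30 min, unchanged parent quantified by LC-MS/MS against the 0 min sample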
# TEST PARAMETERS: human liver microsomes
MEASURED ENDPOINT: HLM (µL/min/mg)
Answers are plain numbers, in µL/min/mg.

Below are worked cases with known answers.
CC(=O)N[C@@H](Cc1ccc(-c2nccs2)cc1)[C@H](O)CN[C@H]1CC2(CCC2)Oc2ncc(CC(C)(C)C)cc21 ... 57
Cc1csc(CN2CCO[C@H](C(=O)N[C@@H](Cc3ccc(F)cc3)[C@H](O)CN[C@H]3CC4(CCC4)Oc4ncc(CC(C)(C)C)cc43)C2)n1 ... 543
COCC(=O)N[C@@H](Cc1ccc2c(c1)OCO2)[C@H](O)CN[C@H]1CC2(CCC2)Oc2c1cc(CC(C)C)nc2Cl ... 131
COCC(=O)N[C@@H](Cc1cc(F)cc(F)c1)[C@H](O)CN[C@H]1CC2(CCC2)Oc2c(-c3nccn3C)cc(CC(C)C)cc21 ... 37

Hi! Can you tell me HLM for each of these compounds?
1. CC(=O)N[C@@H](Cc1cc(F)cc(F)c1)[C@H](O)CN[C@H]1CC2(CCC2)Oc2c(-c3ccncc3)cc(Cl)cc21
2. CO[C@H](C)C(=O)N[C@@H](Cc1ccccc1)[C@H](O)CN[C@H]1CC2(CCC2)Oc2c(-c3cncn3C)cc(CC(C)C)cc21

97
50
